Recorded Hydrolytic activity, Specific activity values for a group of molecules are listed next.
TARGET OF ASSAY: Rhizoupus oryzae lipase ROL (Rhizopus oryzae, UniProt P61872)
Construct: purchased Sigma-Aldrich Co., Ltd
Sequence (P61872 96-392): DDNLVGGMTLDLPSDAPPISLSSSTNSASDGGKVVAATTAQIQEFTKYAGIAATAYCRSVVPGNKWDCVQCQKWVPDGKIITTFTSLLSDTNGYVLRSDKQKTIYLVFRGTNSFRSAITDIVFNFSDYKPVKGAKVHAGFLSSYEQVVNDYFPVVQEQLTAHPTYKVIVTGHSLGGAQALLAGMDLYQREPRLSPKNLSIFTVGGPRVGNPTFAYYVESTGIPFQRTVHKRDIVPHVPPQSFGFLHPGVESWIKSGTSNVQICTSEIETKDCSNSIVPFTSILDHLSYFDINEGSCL
TEST DETAILS: Hydrolytic activity of surfactant-treated lipase ROL using pNPP as substrate
Format: biochemical
COND: surfactant 10 mM, protein 0.2 mg·mL^−1
Value expressed in U · mg^−1; do not type the unit.

Observe how each entry below is paired with its result.
>>> experimental_value("C[C@H](CCC(=O)NCCC[N+](C)(C)CCCS(=O)(=O)[O-])[C@H]1CC[C@H]2[C@@H]3[C@H](O)C[C@@H]4C[C@H](O)CC[C@]4(C)[C@H]3C[C@H](O)[C@]12C")
23.6
>>> experimental_value("CCCCCCCCCCCCCCCC[N+](C)(C)C.[Br-] [CTAB, hexadecyl trimethyl ammonium bromide]")
0
>>> experimental_value("CCCCCCCCCCCCCC(=O)OCC(O)COP(=O)([O-])OCC[N+](C)(C)C (stereo not drawn)")
33.1
>>> experimental_value("CCCCCC(=O)OC[C@H](COP(=O)([O-])OCC[N+](C)(C)C)OC(=O)CCCCC")
15.2
>>> experimental_value("CCCCCCCCCCCCO[C@@H]1O[C@H](CO)[C@@H](O[C@H]2O[C@H](CO)[C@@H](O)[C@H](O)[C@H]2O)[C@H](O)[C@H]1O [DDM, n-dodecyl-ß-D-maltopyranoside]")
42.7

# next molecule below
For "CCCCCCCCCCCCOCCOCCOCCOCCOCCOCCOCCOCCO" , what is its reported Hydrolytic activity, Specific activity? 23.7

Origin of values: patent US20190185829A1
